Biological target: Pro-neuregulin-1, membrane-bound isoform (Homo sapiens)
Experiment: NRG1 binders on small-molecule microarrays, primary screen, psychiatric disease protein project, biochemical, small-molecule microarray, fluorescence 635/667 (AID 1075);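 note: score combines 667 nm spot fluorescence with signal to noise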
Conditions: NRG1 binding, 635 nm fluorescence, higher = more signal
measured_endpoint: composite z-score
Just the number.

Please review the entries below; each comes with its answer.
[[record]]
compound = "[N-]=[N+]=NCc1ccccc1C[C@]1(C(=O)NCC(O)CO)N=C(c2ccc(OCCCO)cc2)O[C@H]1c1ccccc1 (some centres undefined)"
system_under_test = "Pro-neuregulin-1, membrane-bound isoform (Homo sapiens)"
observed_result = 0.958

[[record]]
compound = "CC(C)(C)OC(=O)CC[C@@]12N=C(c3ccc(OCCCO)cc3)O[C@@H]1c1ccccc1N(CCS(=O)(=O)c1ccccc1)C2=O"
system_under_test = "Pro-neuregulin-1, membrane-bound isoform (Homo sapiens)"
observed_result = 0.729

[[record]]
compound = "Cc1ccc(S[C@]2(C(=O)NCC(F)(F)F)CC(=O)N(C(C)C)[C@@H]2c2ccc(CO)cc2I)cc1"
system_under_test = "Pro-neuregulin-1, membrane-bound isoform (Homo sapiens)"
observed_result = 1.08

[[record]]
compound = "O=C1C[C@]2(c3ccc([N+](=O)[O-])cc3)C(=O)N(CCN3CCOCC3)c3cc(CO)ccc3[C@H]2N1C1CCCCC1"
system_under_test = "Pro-neuregulin-1, membrane-bound isoform (Homo sapiens)"
observed_result = 1.37


Reported composite z-score, compound O=C1NC(=O)C2C1C=CC(C(O)C(c1ccccc1)c1ccccc1)N2Nc1ccc(Cl)cc1Cl (centres undefined) : ____
0.782

Reported composite z-score, compound COC(=O)C(CC#Cc1ccc2c(c1)[C@]1(C(=O)N2)[C@H](C(=O)O)[C@H]2C(=O)O[C@H](c3ccccc3)[C@H](c3ccccc3)N2[C@@H]1c1ccc(O)cc1)C(=O)OC : ____
1.42

Reported composite z-score, compound C=C(CCCC)/C(=C/C[C@@H](OC(C)=O)c1ccccc1OCCO)c1cnc2ccccc2c1 : ____
0.967

Reported composite z-score, compound C=C(C)C1C(=C)CN([C@H](CO)c2ccccc2)C1=O (some centres undefined) : ____
-0.461

Reported composite z-score, compound CN1C(=O)[C@]2(Cc3ccccc3)N=C(c3ccc(OCCCO)cc3)O[C@@H]2c2ccccc21 : ____
1.36

Reported composite z-score, compound COc1ccc([Si](C)(C)[C@H]2[C@H](CC(=O)N3Cc4ccccc4C[C@H]3CO)O[C@@]3(C(=O)N(Cc4ccc(N5CCC5=O)cc4)c4ccccc43)[C@@H]2C)cc1 : ____
1.08

Reported composite z-score, compound COc1ccc(CCN2C(=O)[C@@]3(c4ccc([N+](=O)[O-])cc4)CC(=O)N(C4CCCCC4)[C@@H]3c3ccc(CO)cc32)cc1 : ____
0.0125

Reported composite z-score, compound C=CCNC(=O)[C@@H]1[C@H]2C(=O)O[C@H](c3ccccc3)[C@H](c3ccccc3)N2[C@H](c2ccccc2OCCO)[C@@]12C(=O)N(C(=O)OCCOC)c1ccc(C#CCNC(N)=O)cc12 : ____
1.27

Reported composite z-score, compound CCc1oc(CC[C@@H](CO)NC(=O)NCCn2cc(C3(O)CCCCC3)nn2)c(C(=O)OC)c1C(=O)OC : ____
0.172

Reported composite z-score, compound COCCOC(=O)N1C(=O)[C@@]2(c3cc(C#CC4=CCCCC4)ccc31)[C@H](C(N)=O)[C@H]1C(=O)O[C@H](c3ccccc3)[C@H](c3ccccc3)N1[C@@H]2c1ccc(OCCO)cc1 : ____
0.514

---

Target: Alpha-bungarotoxin (Bungarus multicinctus)
Experiment: alpha-bungarotoxin binders on microarray, profiling panel, artefact control for SMM control protein annotation, biochemical, small-molecule microarray, Alexa647 label, 635/667 nm fluorescence (AID 1117)
Conditions: alpha-BTX-A647 binding fluorescence, higher = more signal
measured_endpoint: composite z-score
Just the number.

[[record]]
compound = "O=C1c2ccccc2[C@@]2(Cc3ccccc3N(CCN3CCOCC3)C2=O)[C@H](c2ccc(CO)cc2)N1Cc1ccccc1"
observed_result = 0.175

[[record]]
compound = "CC(C)C(=C=CC[C@@H](O)c1ccccc1OCCO)CCO"
observed_result = 0.606

[[record]]
compound = "COC(=O)[C@@]1(Cc2ccccc2)[C@H]2c3cc(C(=O)N4CCCC4)n(Cc4nc5ccccc5[nH]4)c3C[C@H]2CN1C(=O)c1ccccc1"
observed_result = 0.442

[[record]]
compound = "COc1ccc(CCNC(=O)[C@@]2(Sc3ccc(C)cc3)CC(=O)N(C3CCCCC3)[C@@H]2c2ccc(CO)cc2I)cc1"
observed_result = 0.649

[[record]]
compound = "COCCCNC(=O)[C@@]1(Cc2ccccc2N=[N+]=[N-])N=C(c2ccc(OCCCO)cc2)O[C@H]1c1ccccc1N=[N+]=[N-]"
observed_result = 1.74

[[record]]
compound = "O=C1OCCC/C=C\\[C@H]2OC34C=CCN(CCN5CCOCC5)C(=O)[C@H]3N(CCCO)C(=O)[C@@H]4C12 (some centres not stated)"
observed_result = 1.19


Next, consider the following compound.
Reported composite z-score, compound C=CCNC(=O)[C@@H]1[C@H]2C(=O)O[C@H](c3ccccc3)[C@H](c3ccccc3)N2[C@H](c2ccccc2OCCO)[C@@]12C(=O)N(C(=O)OCCOC)c1ccc(C#CCNC(N)=O)cc12 : ____
1.76

---

Assay: small-molecule microarray binders of probe aShh, primary screen, biochemical, biotinylated probe, 635/667 nm fluorescence (AID 1114);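 note: probe is biotin-labelled aShh protein from a stem cell growth factor screen; measures binding of labelled protein to compounds printed on the slide; score merges feature fluorescence at 667 nm with signal-to-noise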
Details: higher = more signal
Respond with Met for composite z-score values of -0.03 and above, Not met for values below.

[[record]]
compound = "C=CCOC(=O)[C@H]1[C@@H]2C(=O)O[C@@H](c3ccccc3)[C@@H](c3ccccc3)N2[C@@H](c2ccc(OCCOC(=O)[C@H]3C[C@H]4C(=O)N5CCC[C@H]5C(=O)N4[C@H]3c3ccc(O)cc3)cc2)[C@]12C(=O)Nc1ccccc12"
assigned_label = "Met"

[[record]]
compound = "C#CCNC(=O)[C@H](Cc1ccccc1)NC(=O)CCC(=O)O"
assigned_label = "Not met"

[[record]]
compound = "COc1ccc(C(=O)Nc2ccc(CN3C(=O)[C@@]4(O[C@@H](CCn5cc([C@H](O)c6ccccc6)nn5)[C@H]([Si](C)(C)c5ccc(OC)cc5)[C@H]4C)c4ccccc43)cc2)cc1"
assigned_label = "Not met"

[[record]]
compound = "C=CCNC(=O)[C@@H]1[C@H]2C(=O)O[C@H](c3ccccc3)[C@H](c3ccccc3)N2[C@H](c2ccc(OCCO)cc2)[C@@]12C(=O)Nc1ccc(C#Cc3ccc(OC)cc3)cc12"
assigned_label = "Met"

[[record]]
compound = "CN1C(=O)C2C=CC(C(O)c3ccc(-c4ccccc4)s3)N(N(c3ccccc3)c3ccccc3)C2C1=O (stereo unspecified)"
assigned_label = "Not met"


Is reported composite z-score greater than or equal to -0.03 here: C=C(COC)/C(=C/C[C@@H](OC(C)=O)c1ccc(OCCO)cc1)c1cc(C(=O)OC)ccc1OC
Met

---

Biological target: Pro-neuregulin-1, membrane-bound isoform (Homo sapiens)
Assay: NRG1 binders on small-molecule microarrays, primary screen, psychiatric disease protein project, biochemical, small-molecule microarray, fluorescence 635/667 (AID 1075);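 note: score combines 667 nm spot fluorescence with signal to noise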
Conditions: NRG1 binding, 635 nm fluorescence, higher = more signal
The entries below are paired with their reported composite z-score.
Just the number.

Please review the entries below; each comes with its answer.
[[record]]
molecule = "CN1C(=O)C2C=CC(C(O)c3ccccc3)N(Nc3ccccc3)C2C1=O (centres undefined)"
system_under_test = "Pro-neuregulin-1, membrane-bound isoform (Homo sapiens)"
measured_endpoint = "composite z-score"
observed_result = 0.151

[[record]]
molecule = "[N-]=[N+]=NCc1ccccc1C[C@]1(C(=O)O)N=C(c2ccc(OCCCO)cc2)O[C@H]1c1ccccc1N=[N+]=[N-]"
system_under_test = "Pro-neuregulin-1, membrane-bound isoform (Homo sapiens)"
measured_endpoint = "composite z-score"
observed_result = 1.78


What is its composite z-score for Pro-neuregulin-1, membrane-bound isoform (Homo sapiens)? Entry: CC(C)c1ccc(NN2C(C(O)C(c3ccccc3)c3ccccc3)C=CC3C(=O)N(c4ccccc4)C(=O)C32)cc1 (centres undefined)
1.63

What is its composite z-score for Pro-neuregulin-1, membrane-bound isoform (Homo sapiens)? Entry: COCCOC(=O)N1C(=O)[C@@]2(c3cc(C#Cc4ccc(OC)cc4)ccc31)[C@H](C(=O)N1CCCCCCC1)[C@H]1C(=O)O[C@H](c3ccccc3)[C@H](c3ccccc3)N1[C@@H]2c1ccc(OCCO)cc1
1.01

---

Test: binders of probe aFGF10 on microarray, primary screen, stem cell growth factor project, biochemical, small-molecule microarray, fluorescence 635/667 (AID 1071);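 note: score merges 667 nm spot intensity and signal to noise from triplicate slides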
Settings: higher = more signal
Respond with t for composite z-score values of 0.5 and above, f for values below.

[[record]]
molecule = "COC(=O)c1c(CC[C@@H](CO)NC(=O)N[C@H](Cn2cc(Cc3ccccc3)nn2)C(C)C)oc(C(C)=O)c1C(=O)OC"
assigned_label = "t"

[[record]]
molecule = "Cc1ccc(S[C@]2(C(=O)NC3CC3)CC(=O)N(C3Cc4ccccc4C3)[C@@H]2c2ccc(CO)cc2)cc1"
assigned_label = "f"

[[record]]
molecule = "CCN(CC)c1ccc(N2CC=CC34O[C@@H]5/C=C\\CCCOC(=O)C5[C@H]3C(=O)N(CCO)[C@@H]4C2=O)cc1 (stereo partly drawn)"
assigned_label = "f"


Is reported composite z-score greater than or equal to 0.5 here: O=C(c1ccccc1)N1Cc2ccccc2[C@@H]2OC(c3ccc(OCCCO)cc3)=N[C@]2(Cc2ccccc2)C1=O
f

Is reported composite z-score greater than or equal to 0.5 here: COC(=O)c1c(CC[C@@H](CO)NC(=O)N2CCC[C@H]2Cn2cc(-c3ccccn3)nn2)oc(C(C)=O)c1C(=O)OC
t

Is reported composite z-score greater than or equal to 0.5 here: CCCC=C(CCC)[C@@H](NC(=O)Oc1ccc(F)cc1)c1ccc(C(=O)OC)cc1
f

Is reported composite z-score greater than or equal to 0.5 here: C=CCNC(=O)[C@@H]1[C@H]2C(=O)O[C@H](c3ccccc3)[C@H](c3ccccc3)N2[C@H](c2ccc(OCCO)cc2)[C@@]12C(=O)Nc1ccc(C#CCCO)cc12
t

Is reported composite z-score greater than or equal to 0.5 here: C#CCNC(=O)[C@H](Cc1ccccc1)NC(=O)CCC(=O)O
f
